- EXPERIMENT_NOTES: chemical genetic growth profiling, strain panel (AID 1159580);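 further: tested at 20 µM; growth read once vehicle control cultures reached saturation at 30 °C; 1 = growth at the plate median or of vehicle wells; lower values mean less growth of the strain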
- PARTICULARS: S. cerevisiae deletion strains, growth OD, locus YML016C, strain PPZ1, hits give low values
About 2,000 (36%) of roughly 5,500 compounds were called active. Another 18% or so got no clear call; they are omitted. The list shows a part of the results.
This section presents compounds with their documented normalized growth values.

{"COMPOUND": "C[C@@H]1CC2C3C[C@H](F)C4=CC(=O)C=C[C@]4(C)[C@@]3(F)[C@@H](O)C[C@]2(C)[C@@]1(O)C(=O)COC(=O)C(C)(C)C (stereo partly specified)", "normalized growth": "1 (inactive)"}
{"COMPOUND": "O=C(O)c1ccccc1C(=O)Nc1ccc(S(=O)(=O)Nc2nccs2)cc1", "normalized growth": "0.995 (inactive)"}
{"COMPOUND": "CC(=O)O[C@H]1CC[C@]2(C)C3C(=O)[C@@H](OC(C)=O)[C@@]4(C)C(C[C@@H]5O[C@]6(CCC(C)CO6)[C@@H](C)[C@@H]54)C3CC[C@H]2C1 (stereo partly specified)", "normalized growth": "0.981 (inactive)"}
{"COMPOUND": "CN(C)C(=O)Nc1ccc(Cl)c(Cl)c1", "normalized growth": "0.993 (inactive)"}
{"COMPOUND": "CC(CN(C)C)CN1c2ccccc2CCc2ccccc21 (stereo unspecified)", "normalized growth": "1.01 (inactive)"}
{"COMPOUND": "CCC(=O)Nc1ccc(Cl)c(Cl)c1", "normalized growth": "0.997 (inactive)"}

---

- EXPERIMENT_NOTES: chemical genetic growth profiling, strain panel (AID 1159580)
- PARTICULARS: S. cerevisiae deletion strains, growth OD, locus YJL095W, strain BCK1, hits give low values
Hit rate of the full screen: of about 5,500 compounds, about 2,000 (36%) were called active. Another 18% or so got no clear call; they are omitted. The list shows a part of the results.

{"COMPOUND": "COC(=O)CCC(=O)O[C@H]1CCC2(C)C(CCC3C2C(=O)[C@@H](O)C2(C)C3CC3OC4(CCC(C)CO4)[C@@H](C)C32)C1 (some centres not stated)", "normalized growth": 0.989}
{"COMPOUND": "CC(C)(C)C(=O)/C(C#N)=C/c1c(Cl)cccc1Cl", "normalized growth": 0.104}
{"COMPOUND": "CN(CCC(N)CC(=O)N[C@H]1C=CC(n2ccc(N)nc2=O)O[C@@H]1C(=O)O)C(=N)N (some centres not stated)", "normalized growth": 0.934}
{"COMPOUND": "Nc1cc(C(Cl)=C(Cl)Cl)c(S(N)(=O)=O)cc1S(N)(=O)=O", "normalized growth": 1.01}
{"COMPOUND": "O=c1cc(-c2ccccc2)oc2cccc(O)c12", "normalized growth": 0.995}
{"COMPOUND": "CCN(CCCc1ccccc1)CCCc1ccccc1", "normalized growth": 1.02}
{"COMPOUND": "O=[N+]([O-])c1cccc2c(Br)[nH]nc12", "normalized growth": 0.911}

---

- EXPERIMENT_NOTES: chemical genetic growth profiling, strain panel (AID 1159580);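 further: tested at 20 µM; growth read once vehicle control cultures reached saturation at 30 °C; 1 = growth at the plate median or of vehicle wells; lower values mean less growth of the strain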
- PARTICULARS: S. cerevisiae deletion strains, growth OD, locus YDL134C, strain PPH21, hits give low values
The campaign covered roughly 5,500 compounds. About 2,000 (36%) were called active. About 18% were inconclusive and are not listed. Some of the results follow.
Returns: string. Value is class 1 if measured normalized growth is below 1, and class 0 if it is greater than or equal to it.

{"MOLECULE": "COc1cc(CC/C(C)=N/O)ccc1OCc1ccc(Cl)cc1Cl", "CLASS": "class 1"}
{"MOLECULE": "COC(=O)CCC(C)C1CCC2C3CC[C@@H]4C[C@H](O)CC[C@]4(C)C3C[C@H](O)[C@]12C (stereo not given in full)", "CLASS": "class 1"}
{"MOLECULE": "CCCCCC1C(=O)CCC1CC(=O)O (stereo not given)", "CLASS": "class 0"}
{"MOLECULE": "COc1ccc(CNc2ccccc2-c2nc3ccccc3[nH]2)cc1", "CLASS": "class 1"}

---

- EXPERIMENT_NOTES: chemical genetic growth profiling, strain panel (AID 1159580);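 further: tested at 20 µM; growth read once vehicle control cultures reached saturation at 30 °C; 1 = growth at the plate median or of vehicle wells; lower values mean less growth of the strain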
- PARTICULARS: S. cerevisiae deletion strains, growth OD, locus YDR297W, strain sur2
About 2,000 (36%) of roughly 5,500 compounds were called active. About 18% were inconclusive and are not listed. Cut-off read from the data, not from the text of the source: active = normalized growth mostly below about 0.91 (no sharp cut-off); inconclusive = no clear call, values can overlap the other calls; inactive = mostly above about 0.92. The list shows a part of the results.
Outcomes: active, inactive

{"COMPOUND": "O=c1cc(-c2ccccc2)oc2cc(O)c(O)cc12", "CLASS": "inactive"}
{"COMPOUND": "Cc1cc(C)cc(OCC2CNC(=O)O2)c1 (configuration not stated)", "CLASS": "inactive"}
{"COMPOUND": "C=C1C2CCC3(C)C(c4ccoc4)OC(=O)CC13OC1CC(OC(C)=O)C(C)(C)C(CC(=O)OC)C12C (configuration not stated)", "CLASS": "inactive"}
{"COMPOUND": "CN(C)N=Nc1nc[nH]c1C(N)=O", "CLASS": "inactive"}
{"COMPOUND": "CC(=O)Nc1nnc(S(N)(=O)=O)s1", "CLASS": "inactive"}
{"COMPOUND": "C=C[C@H]1CN2CC[C@H]1C[C@@H]2[C@H](O)c1ccnc2ccccc12", "CLASS": "inactive"}
{"COMPOUND": "CN(C)CCOC(=O)C(c1ccccc1)C1(O)CCCC1 (configuration not stated)", "CLASS": "inactive"}
{"COMPOUND": "Nc1cc(-c2ccncc2)c[nH]c1=O", "CLASS": "active"}
{"COMPOUND": "COc1cc(C)c(C(=O)Oc2cc(C)c(C(=O)O)c(O)c2C)c(OC)c1C", "CLASS": "inactive"}
{"COMPOUND": "COc1c2ccoc2nc2c(OC)c(OCC(O)C(C)(C)O)ccc12 (configuration not stated)", "CLASS": "inactive"}
{"COMPOUND": "C=C1C2CC[C@@]3(C)[C@H](c4ccoc4)OC(=O)C[C@]13O[C@H]1CC(=O)C(C)(C)C(CC(=O)OC)[C@@]21C (some centres not stated)", "CLASS": "inactive"}
{"COMPOUND": "CC12CC3CC(C)(C1)CC(N)(C3)C2", "CLASS": "inactive"}
{"COMPOUND": "CN(CCC(N)CC(=O)N[C@H]1C=CC(n2ccc(N)nc2=O)O[C@@H]1C(=O)O)C(=N)N (some centres not stated)", "CLASS": "inactive"}
{"COMPOUND": "N[C@@H]1[C@@H](O)[C@H](O)[C@@H](CO)O[C@H]1O", "CLASS": "inactive"}
{"COMPOUND": "CC(C)CCCC(C)C1CCC2C3CC[C@H]4CCCC[C@]4(C)C3CC[C@]12C (some centres not stated)", "CLASS": "inactive"}
{"COMPOUND": "N#C/C(=C\\c1cccc(O)c1)C(=O)O", "CLASS": "inactive"}
{"COMPOUND": "C[C@@H](N)[C@@H](O)c1ccccc1", "CLASS": "inactive"}
{"COMPOUND": "O=C(O)CCCOc1ccc(Cl)cc1Cl", "CLASS": "inactive"}
{"COMPOUND": "COC(=O)CCCOc1ccc(Cl)cc1Cl", "CLASS": "inactive"}
{"COMPOUND": "CCCC(C(=O)OCCN(CC)CC)(c1ccccc1)c1ccccc1", "CLASS": "inactive"}
{"COMPOUND": "c1ccc2c(c1)CN1CCCC1=N2", "CLASS": "inactive"}
{"COMPOUND": "Cc1nc2ccccn2c(=O)c1CCN1CCC(C(=O)c2ccc(F)cc2)CC1", "CLASS": "inactive"}
{"COMPOUND": "CCCC(CCC)C(=O)O", "CLASS": "inactive"}
{"COMPOUND": "O=c1cc(-c2ccc(O)cc2)oc2cc(O)cc(O)c12", "CLASS": "inactive"}
{"COMPOUND": "Nc1ccncc1", "CLASS": "inactive"}
{"COMPOUND": "O=[N+]([O-])c1cccc2c(Br)[nH]nc12", "CLASS": "inactive"}
{"COMPOUND": "Cc1ncc([N+](=O)[O-])n1CC(C)O (configuration not stated)", "CLASS": "inactive"}

---

This section presents compounds with their documented normalized growth values.
- EXPERIMENT_NOTES: chemical genetic growth profiling, strain panel (AID 1159580);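 further: tested at 20 µM; growth read once vehicle control cultures reached saturation at 30 °C; 1 = growth at the plate median or of vehicle wells; lower values mean less growth of the strain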
- PARTICULARS: S. cerevisiae deletion strains, growth OD, locus YKL190W, strain CNB1, hits give low values
Out of some 5,500 compounds screened, about 2,000 (36%) were called active. Roughly 18% stayed inconclusive and do not appear here. Some of the results follow.
READOUT_KIND: normalized growth

{"COMPOUND": "O=C(O)CCOc1ccc(Cl)cc1", "OBSERVED_RESULT": 1}
{"COMPOUND": "O=C(Nc1nncs1)c1ccncc1", "OBSERVED_RESULT": 1.03}
{"COMPOUND": "Cc1cc(O)c(C)c2c1C(=O)Oc1c(C)c(O)c(C(=O)O)c(C)c1O2", "OBSERVED_RESULT": 1}
{"COMPOUND": "NC(N)=O", "OBSERVED_RESULT": 1}
{"COMPOUND": "O=C(O)CC(CC(=O)Nc1ccc(I)cc1F)c1ccc(C(F)(F)F)cc1 (stereo not given)", "OBSERVED_RESULT": 1.01}
